Where do these numbers come from? They come from ChEMBL document CHEMBL5543112.

test method notes: Metabolic stability in mouse plasma assessed as half life measured upto 120 mins by LC-MS/MS analysis
Type: ADME, cell-free
recorded metric: half-life

half-life reading for CC(=O)N1CCc2c(c(N3CCCc4cc(-c5cnn(C)c5)c(C(F)F)cc43)nn2[C@H]2CC[C@H](CN3Cc4cc5c(cc4C3)C(=O)N(C3CCC(=O)NC3=O)C5=O)CC2)C1 (stereo partly specified) : > 2 h

====

target of assay: Cytochrome P450 3A4 (Homo sapiens)
Sequence (P08684 whole entry): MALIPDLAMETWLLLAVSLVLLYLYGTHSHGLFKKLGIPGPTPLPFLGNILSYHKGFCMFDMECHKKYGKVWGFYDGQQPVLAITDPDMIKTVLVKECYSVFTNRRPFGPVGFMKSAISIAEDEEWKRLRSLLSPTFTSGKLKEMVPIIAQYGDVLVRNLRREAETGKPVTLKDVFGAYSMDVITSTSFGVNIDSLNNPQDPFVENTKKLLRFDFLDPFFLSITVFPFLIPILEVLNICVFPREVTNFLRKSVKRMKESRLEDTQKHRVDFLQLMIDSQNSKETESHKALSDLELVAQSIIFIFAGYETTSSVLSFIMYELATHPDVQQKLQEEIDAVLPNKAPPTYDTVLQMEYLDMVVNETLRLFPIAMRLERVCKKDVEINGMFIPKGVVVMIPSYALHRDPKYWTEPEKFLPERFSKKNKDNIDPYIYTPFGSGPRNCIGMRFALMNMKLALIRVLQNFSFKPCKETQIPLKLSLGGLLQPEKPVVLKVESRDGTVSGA
test method notes: Inhibition of CYP3A4 (unknown origin) using testosterone as substrate preincubated with compound for 5 mins followed by NADPH addition and measured after 20 mins by LC-MS/MS analysis
Assay type: ADME
pIC50: −log10 of the molar value.
recorded metric: pIC50

pIC50 reading for CC(=O)N1CCc2c(c(N3CCCc4cc(-c5cnn(C)c5)c(C(F)F)cc43)nn2[C@H]2CC[C@H](CN3Cc4cc5c(cc4C3)C(=O)N(C3CCC(=O)NC3=O)C5=O)CC2)C1 (stereo partly specified) : < 5.00

====

target of assay: Cytochrome P450 1A2 (Homo sapiens, UniProt P05177)
Sequence (P05177 whole entry): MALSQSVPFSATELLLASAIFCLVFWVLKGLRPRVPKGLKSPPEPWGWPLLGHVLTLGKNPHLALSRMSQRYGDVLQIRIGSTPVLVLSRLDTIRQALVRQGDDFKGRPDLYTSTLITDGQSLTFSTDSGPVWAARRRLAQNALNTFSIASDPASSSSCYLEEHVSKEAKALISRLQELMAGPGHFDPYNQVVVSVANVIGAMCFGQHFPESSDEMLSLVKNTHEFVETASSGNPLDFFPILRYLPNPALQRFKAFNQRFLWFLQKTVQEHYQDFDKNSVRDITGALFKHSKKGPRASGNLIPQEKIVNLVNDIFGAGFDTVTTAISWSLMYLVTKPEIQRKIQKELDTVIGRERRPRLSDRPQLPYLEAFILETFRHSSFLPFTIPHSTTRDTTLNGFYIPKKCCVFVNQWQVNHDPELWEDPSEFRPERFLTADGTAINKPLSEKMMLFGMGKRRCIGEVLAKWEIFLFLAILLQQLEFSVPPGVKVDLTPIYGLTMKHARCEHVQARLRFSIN
test method notes: Inhibition of CYP1A2 (unknown origin) preincubated with compound for 5 mins followed by NADPH addition and measured after 5 mins by LC-MS/MS analysis
Format: ADME
pIC50: −log10 of the molar value.
recorded metric: pIC50

pIC50 reading for CC(=O)N1CCc2c(c(N3CCCc4cc(-c5cnn(C)c5)c(C(F)F)cc43)nn2[C@H]2CC[C@H](CN3Cc4cc5c(cc4C3)C(=O)N(C3CCC(=O)NC3=O)C5=O)CC2)C1 (stereo partly specified) : < 5.00

====

test method notes: Drug concentration in rat plasma at 3 mg/kg, po measured at 1 hr by LC-MS/MS analysis
Type: ADME, organism-based
recorded metric: concentration at 1 h

concentration at 1 h reading for CC(=O)N1CCc2c(c(N3CCCc4ccc(C(F)F)cc43)nn2C2CCN(C(=O)CN3Cc4cc5c(cc4C3)C(=O)N(C3CCC(=O)NC3=O)C5=O)CC2)C1 (stereo unspecified) : 0.3 ng/mL

====

test method notes: Volume of distribution at steady state in Sprague-Dawley rat at 1 mg/kg, iv measured upto 24 hrs by LC/MS-MS analysis
Format: ADME, organism-based
experimental conditions: in vivo, read-out: Vdss
recorded metric: Vd (L/kg)
Answer format: numeric, L/kg implied, no suffix.

Vd reading for CC(=O)N1CCc2c(c(N3CCCc4cc(-c5cnn(C)c5)c(C(F)F)cc43)nn2[C@H]2CC[C@H](CN3Cc4cc5c(cc4C3)C(=O)N(C3CCC(=O)NC3=O)C5=O)CC2)C1 (stereo partly specified) : 4.9
